All values here come from patent US20220195063A1.

biological target: human SIRPαBIT expressed on cells (human) (UniProt P78324); assay: flow cytometry, U937 cells
Sequence (P78324 31-504): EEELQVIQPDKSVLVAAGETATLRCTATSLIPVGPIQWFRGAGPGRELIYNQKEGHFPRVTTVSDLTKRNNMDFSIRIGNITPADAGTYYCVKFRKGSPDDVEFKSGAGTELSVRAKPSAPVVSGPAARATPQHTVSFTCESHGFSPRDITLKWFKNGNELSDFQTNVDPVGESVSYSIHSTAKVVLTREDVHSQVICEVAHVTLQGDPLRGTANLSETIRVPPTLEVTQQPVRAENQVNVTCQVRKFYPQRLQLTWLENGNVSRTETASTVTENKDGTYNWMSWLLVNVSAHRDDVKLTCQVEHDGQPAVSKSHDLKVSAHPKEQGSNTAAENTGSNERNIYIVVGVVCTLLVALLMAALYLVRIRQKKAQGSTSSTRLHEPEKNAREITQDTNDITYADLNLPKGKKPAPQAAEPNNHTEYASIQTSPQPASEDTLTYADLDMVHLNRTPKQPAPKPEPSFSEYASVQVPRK
PROPERTY LABEL: EC50 (mg/L)
Report the figure in mg/L without appending any unit label.

Consider the following illustrative entries.
{"BINDER": "anti-SIRPα antibody 8 (antibody, human IgG1, kappa, L234A L235A, V domains shown, Rabbit variable regions on human IgG1 LALA / kappa) VH: QSLEESGGRLVTPGTPLTLTCTASGVDLSNYAMGWVRQAPGKGLEWIGIIYAGGSTSYATWAKGRFTISKTSTTMDLKMTSPTTEDTATYFCARHRSDGYDYFHLWGPGTLVTVSL VL: AIDMTQTPASVSEPVGGTVTIKCQASQSISSWLAWYQQKPGQRPKLLIYDASKLASGVPSRFSGSGSGTEFTLTISGVQSDDAAAYYCQQGYAVSYVENIFGGGTEVVVKR", "EC50 / mg/L": 0.12}
{"BINDER": "anti-SIRPα antibody 7 (antibody, human IgG1, kappa, L234A L235A, V domains shown, Chimeric: rabbit variable regions on human IgG1 LALA / kappa; also called chimeric antibody 7) VH: RSVEESGGRLVTPGTPLTLTCTVSGFSLSSHGISWVRQAPGKGLEYIGTIGTGVITYFASWAKGRFTGSKTSTTVDLKITSPTTEDTATYFCARGSAWNDPFDPWGPGTLVTVSS VL: ALVMTQTPASVSAAVGGTVTTKCQASQSVYGNNDLAWYQHKPGQPPKLLIYLASTLATGVPSRFSGSGSGTQFTLTITGVQSDDAATYYCLGGGDDEADNVFGGGTEVVVKR", "EC50 / mg/L": 0.17}
{"BINDER": "anti-SIRPα antibody 11 humanized (antibody, human IgG1, kappa, L234A L235A, V domains shown, Humanized, human IgG1 LALA / kappa) VH: EVKVEESGGGLVQPGGSLRLSCAASGFSLSSYVMGWVRQAPGKGLEWVSIISSSGSPYYASWVNGRFTISKTSTTMDLQMNSLRAEDTAVYYCARVGPLGVDYFNIWGQGTTVTVSS VL: DIQMTQSPSSLSASVGDRVTITCQAGQSINSYLAWYQQKPGKVPKLLIYYASTLESGVPSRFSGSGSGTDFTLTISSLQPEDVATYYCQSWHYISRSYAFGQGTKVEIKR", "EC50 / mg/L": 0.13}
{"BINDER": "anti-SIRPα antibody 10 humanized (antibody, human IgG1, kappa, L234A L235A, V domains shown, Humanized, human IgG1 LALA / kappa) VH: KVEESGGGLVQPGGSLRLSCAASGFSLSSYVMGWVRQAPGKGLEWVSIISSSGSPYYASWVNGRFTISKDNSEGMVYLQMNSLRAEDTAVYYCARVGPLGVDYFNIWGQGTTVTVSS VL: DIVMTQSPDSLAVSLGERATINCQAGQSINSYLAWYQQKPGQPPKLLIYYASTLESGVPDRFSGSGSGTDFTLTISSLQAEDVAVYYCQSWHYISRSYAFGGGTKLEIKR", "EC50 / mg/L": 0.17}

Continue with the next binder.
Quick one: EC50 of anti-SIRPα antibody 14 humanized (antibody, human IgG1, V domains shown, Humanized, human IgG1 LALA / kappa) VH: RQLVESGGGLVQPGGSLRLSCTASGFSLSSHGISWVRQAPGKGLEYIGTIGTGVITYFASWAKGRFTGSKTSSTAYMELSSLRSEDTAVYFCARGSAWNDPFDPWGQGTLVTVSS VL: DIEMTQSPSSVSASVGDRVTLTCQASQSVYGNNDLAWYQQKPGQAPKLLIYLASTLATGVPSRFSGSGSGTDFTLTISSLQPEDFATYYCLGGGDDEADNVFGGGTKVEIKR ?
0.22
